- TESTED ON: Alpha-1A adrenergic receptor (Homo sapiens, UniProt P35348)
- Sequence (P35348 whole entry): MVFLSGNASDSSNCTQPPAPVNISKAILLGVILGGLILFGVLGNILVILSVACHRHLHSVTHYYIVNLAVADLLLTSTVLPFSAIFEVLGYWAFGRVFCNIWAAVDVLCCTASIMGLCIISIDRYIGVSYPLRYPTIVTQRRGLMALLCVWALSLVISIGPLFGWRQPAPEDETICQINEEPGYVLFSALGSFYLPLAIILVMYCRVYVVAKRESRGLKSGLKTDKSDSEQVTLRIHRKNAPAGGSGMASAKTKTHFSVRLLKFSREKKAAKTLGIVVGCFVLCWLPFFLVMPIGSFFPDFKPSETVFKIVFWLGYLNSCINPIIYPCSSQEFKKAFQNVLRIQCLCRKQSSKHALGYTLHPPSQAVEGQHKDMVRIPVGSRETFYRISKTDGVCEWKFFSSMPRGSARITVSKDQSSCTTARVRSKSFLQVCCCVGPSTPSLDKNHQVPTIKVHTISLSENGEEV
OBSERVATION TYPE: Ki (nM)

Below, each entry is followed by its recorded Ki result.
COMPOUND: CC(=O)C1=C(C)NC(=O)N(C(=O)NCCCN2CCN(c3ccccc3C(N)=O)CC2)C1c1ccc(F)c(F)c1 (stereo not drawn)
TESTED ON: Alpha-1A adrenergic receptor (Homo sapiens, UniProt P35348)
VALUE UNIT: nM
OBS VALUE: 0.7

COMPOUND: COC(=O)C1=C(C)NC(=O)N(C(=O)NCCCN2CCN(c3ccccc3C(N)=O)CC2)C1c1cc(F)c(F)c(F)c1 (stereo not drawn)
TESTED ON: Alpha-1A adrenergic receptor (Homo sapiens, UniProt P35348)
VALUE UNIT: nM
OBS VALUE: 0.3

COMPOUND: COCC1=C(C(=O)OC)C(c2cc(F)c(F)cc2F)N(C(=O)NCCCN2CCN(c3ccccc3C(N)=O)CC2)C(=O)N1 (stereo not drawn)
TESTED ON: Alpha-1A adrenergic receptor (Homo sapiens, UniProt P35348)
VALUE UNIT: nM
OBS VALUE: 0.1

COMPOUND: COC(=O)C1=C(C)NC(=O)N(C(=O)NCCCN2CCN(c3ccc(Cl)cc3)CC2)C1c1ccc(F)c(F)c1 (stereo not drawn)
TESTED ON: Alpha-1A adrenergic receptor (Homo sapiens, UniProt P35348)
VALUE UNIT: nM
OBS VALUE: 0.8

COMPOUND: COC(=O)C1=C(C)NC(=O)N(C(=O)NCCCN2CCN(c3ccccc3Cl)CC2)C1c1ccc(F)c(F)c1 (stereo not drawn)
TESTED ON: Alpha-1A adrenergic receptor (Homo sapiens, UniProt P35348)
VALUE UNIT: nM
OBS VALUE: 0.2

COMPOUND: COC(=O)C1=C(C)NC(=O)N(C(=O)NCCCN2CCN(c3ccccc3[N+](=O)[O-])CC2)C1c1ccc(F)c(F)c1 (stereo not drawn)
TESTED ON: Alpha-1A adrenergic receptor (Homo sapiens, UniProt P35348)
VALUE UNIT: nM
OBS VALUE: 0.01

1 = COC(=O)C1=C(C)NC(=O)N(C(=O)NCCCN2CCN(c3cccc(C(F)(F)F)c3)CC2)C1c1ccc(F)c(F)c1 (stereo not drawn)
2 = COC(=O)C1=C(C)NC(=O)N(C(=O)NCCCN2CCN(c3ccc(OC)cc3)CC2)C1c1ccc(F)c(F)c1 (stereo not drawn)
**Q:** Lowest Ki? choose 1 or 2 State your choice using its label.
**A:** 1

I = COC(=O)C1=C(C)NC(=O)N(C(=O)NCCCN2CCN(c3ccccc3[N+](=O)[O-])C[C@H]2C)C1c1ccc(F)c(F)c1 (stereo partly drawn)
II = COC(=O)C1=C(C)NC(=O)N(C(=O)NCCCN2CCN(c3ccccc3C)CC2)C1c1ccc(F)c(F)c1 (stereo not drawn)
III = COC(=O)C1=C(C)NC(=O)N(C(=O)NCCCN2CCN(c3ccc(OC)cc3C)CC2)C1c1ccc(F)c(F)c1 (stereo not drawn)
IV = COC(=O)C1=C(C)NC(=O)N(C(=O)NCCCN2CCN(c3cccc(Cl)c3)CC2)C1c1ccc(F)c(F)c1 (stereo not drawn)
V = COC(=O)C1=C(C)NC(=O)N(C(=O)NCCCN2CCN(c3ccccc3)CC2)C1c1ccc(F)c(F)c1 (stereo not drawn)
**Q:** Sort ascending by Ki. Reply with the item labels sorted in the order that was asked for.
**A:** I, V, II, IV, III
(I: 0.05 nM, V: 0.2 nM, II: 0.3 nM, IV: 0.7 nM, III: 16 nM)

* * *

- TESTED ON: UniProt:P25100
- Sequence (P25100 whole entry): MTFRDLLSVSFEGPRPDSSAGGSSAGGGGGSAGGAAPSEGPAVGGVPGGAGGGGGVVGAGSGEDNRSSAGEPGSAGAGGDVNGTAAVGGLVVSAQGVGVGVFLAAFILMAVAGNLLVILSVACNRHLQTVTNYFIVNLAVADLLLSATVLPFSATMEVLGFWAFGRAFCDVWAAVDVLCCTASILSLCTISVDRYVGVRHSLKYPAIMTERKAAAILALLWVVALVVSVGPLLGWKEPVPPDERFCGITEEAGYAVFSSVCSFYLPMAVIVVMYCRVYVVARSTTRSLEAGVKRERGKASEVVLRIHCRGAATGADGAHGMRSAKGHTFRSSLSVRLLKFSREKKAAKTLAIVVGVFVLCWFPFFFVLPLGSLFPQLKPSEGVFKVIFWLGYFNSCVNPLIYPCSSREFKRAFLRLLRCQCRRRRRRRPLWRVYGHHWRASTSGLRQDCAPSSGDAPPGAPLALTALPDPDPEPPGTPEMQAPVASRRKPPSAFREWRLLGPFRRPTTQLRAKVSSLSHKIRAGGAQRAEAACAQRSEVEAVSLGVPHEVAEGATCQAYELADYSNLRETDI
- TEST METHOD NOTES: In vitro binding affinity against Alpha-1D adrenergic receptor at recombinant human receptor.
- MEASUREMENT CONTEXT: in the assay text read “at recombinant human receptor” for “of human liver microsomes”
pKi: −log10 of the molar value.
OBSERVATION TYPE: pKi

COMPOUND: CCOc1ccccc1N1CCN(CCCNC(=O)N2C(=O)NC(C)=C(C(=O)OC)C2c2ccc(F)c(F)c2)CC1 (stereo unspecified)
pKi: 7.85
//
COMPOUND: COC(=O)C1=C(C)NC(=O)N(C(=O)NCCCN2CCN(c3ccccc3OC)CC2)C1c1ccc(F)c(F)c1 (stereo unspecified)
pKi: 7.51
//
COMPOUND: COC(=O)C1=C(C)NC(=O)N(C(=O)NCCCN2CCN(c3cccc(Cl)c3)CC2)C1c1ccc(F)c(F)c1 (stereo unspecified)
pKi: 7.43
//
COMPOUND: COC(=O)C1=C(C)NC(=O)N(C(=O)NCCCN2CCN(c3ccccc3C(=O)OC)CC2)C1c1ccc(F)c(F)c1 (stereo unspecified)
pKi: 7.52

1 = COCC1=C(C(=O)OC)C(c2cc(F)c(F)cc2F)N(C(=O)NCCCN2CCN(c3ccccc3C(N)=O)CC2)C(=O)N1 (stereo unspecified)
2 = COC(=O)C1=C(C)NC(=O)N(C(=O)NCCCN2CCN(c3ccccc3[N+](=O)[O-])C[C@H]2C)C1c1ccc(F)c(F)c1 (stereo partly specified)
**Q:** Lowest pKi? choose 1 or 2 State your choice using its label.
**A:** 1

* * *

- TESTED ON: UniProt:P35368
- Sequence (P35368 whole entry): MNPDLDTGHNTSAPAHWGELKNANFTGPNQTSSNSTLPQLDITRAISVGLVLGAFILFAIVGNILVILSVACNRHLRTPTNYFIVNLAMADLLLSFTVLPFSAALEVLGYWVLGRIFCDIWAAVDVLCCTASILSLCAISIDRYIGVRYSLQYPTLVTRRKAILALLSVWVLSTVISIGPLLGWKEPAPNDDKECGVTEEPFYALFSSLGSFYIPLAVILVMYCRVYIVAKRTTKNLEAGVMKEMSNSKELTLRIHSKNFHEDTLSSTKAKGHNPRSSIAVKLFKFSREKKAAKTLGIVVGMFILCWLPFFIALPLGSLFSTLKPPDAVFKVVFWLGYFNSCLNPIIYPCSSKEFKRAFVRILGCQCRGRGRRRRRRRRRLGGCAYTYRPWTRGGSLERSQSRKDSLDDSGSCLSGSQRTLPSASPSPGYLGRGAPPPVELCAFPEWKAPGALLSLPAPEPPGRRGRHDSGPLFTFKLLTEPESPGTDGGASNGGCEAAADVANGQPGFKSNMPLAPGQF
- TEST METHOD NOTES: In vitro binding affinity against Alpha-1B adrenergic receptor at recombinant human receptor.
OBSERVATION TYPE: Ki (nM)

Below, each entry is followed by its recorded Ki result.
MOLECULE: COC(=O)C1=C(C)NC(=O)N(C(=O)NCCCN2CCN(c3ccccc3)CC2)C1c1ccc(F)c(F)c1 (stereo unspecified)
Ki / nM: 7.5
//
MOLECULE: COC(=O)C1=C(C)NC(=O)N(C(=O)NCCCN2CCN(c3ccc(Cl)cc3)CC2)C1c1ccc(F)c(F)c1 (stereo unspecified)
Ki / nM: 17
//
MOLECULE: CC(=O)C1=C(C)NC(=O)N(C(=O)NCCCN2CCN(c3ccccc3C(N)=O)CC2)C1c1cc(F)c(F)c(F)c1 (stereo unspecified)
Ki / nM: 220
//
MOLECULE: COC(=O)C1=C(C)NC(=O)N(C(=O)NCCCN2CCN(c3ccccc3[N+](=O)[O-])C[C@@H]2C)C1c1ccc(F)c(F)c1 (stereo partly specified)
Ki / nM: 49

P = COC(=O)C1=C(C)NC(=O)N(C(=O)NCCCN2CCN(c3ccccc3C)CC2)C1c1ccc(F)c(F)c1 (stereo unspecified)
Q = COC(=O)C1=C(C)NC(=O)N(C(=O)NCCCN2CCN(c3cccc(C(F)(F)F)c3)CC2)C1c1ccc(F)c(F)c1 (stereo unspecified)
**Q:** Compare P and Q by numeric Ki and name the larger one. State your choice using its label.
**A:** Q
